Origin of measurements: patent US20230183291A1

- study_system: ACE2 protein (Homo sapiens (Human)), Q9BYF1
- Sequence (Q9BYF1 18-740 limits assumed): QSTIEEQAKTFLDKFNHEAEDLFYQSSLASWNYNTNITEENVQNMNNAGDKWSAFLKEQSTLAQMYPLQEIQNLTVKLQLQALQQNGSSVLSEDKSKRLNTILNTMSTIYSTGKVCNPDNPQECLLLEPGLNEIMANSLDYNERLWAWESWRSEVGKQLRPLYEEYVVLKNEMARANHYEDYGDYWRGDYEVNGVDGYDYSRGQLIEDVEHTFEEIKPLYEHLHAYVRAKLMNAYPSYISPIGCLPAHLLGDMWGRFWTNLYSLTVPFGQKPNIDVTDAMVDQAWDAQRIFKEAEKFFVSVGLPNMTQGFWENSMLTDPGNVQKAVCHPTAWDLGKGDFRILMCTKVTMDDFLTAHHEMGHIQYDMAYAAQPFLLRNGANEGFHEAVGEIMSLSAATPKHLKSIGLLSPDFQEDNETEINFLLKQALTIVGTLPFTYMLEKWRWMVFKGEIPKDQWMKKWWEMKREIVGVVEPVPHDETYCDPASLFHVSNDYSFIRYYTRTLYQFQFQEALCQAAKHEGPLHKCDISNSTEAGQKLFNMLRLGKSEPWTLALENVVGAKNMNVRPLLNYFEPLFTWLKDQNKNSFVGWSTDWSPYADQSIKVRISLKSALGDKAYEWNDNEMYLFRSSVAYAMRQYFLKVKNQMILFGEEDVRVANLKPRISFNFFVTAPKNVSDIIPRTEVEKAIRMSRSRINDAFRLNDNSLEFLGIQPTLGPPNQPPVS
- protocol_text: fluorescence polarisation direct binding, 1 nM fluorescein tracer, ACE2 titrated
Numbered stars: 1 amine (or outer) side, 2 acyl side, 3 side chain; on linkers, the order of the positions; unused ones are H or OH. Bridge positions count the residues as written; N and C are the ends. Square brackets hold non-standard residues; d marks the D form. Ends that are not written are not given here. TATA = O=C(CC[*:1])N1CN(C(=O)CC[*:2])CN(C(=O)CC[*:3])C1; 2Nal = N[C@@H](Cc1ccc2ccccc2c1)C(=O)O; hArg = N=C(N)NCCCC[C@H](N)C(=O)O; Sar = CNCC(=O)O

binder: ACNAVLCS[2Nal]ARANSFCA[Sar][Sar][Sar][Sar][Sar][Sar]K(fluorescein) (linker 2-7-16 via TATA) [BCY16867]
output_unit: nM
Kd: 50.7
//
binder: ACNAVLCSWA[hArg]ANSFCA[Sar][Sar][Sar][Sar][Sar][Sar]K(fluorescein) (linker 2-7-16 via TATA) [BCY16874]
output_unit: nM
Kd: 62
//
binder: ACTRPWCHSLLPRATCA[Sar][Sar][Sar][Sar][Sar][Sar]K(fluorescein) (linker 2-7-16 via TATA) [BCY15285]
output_unit: nM
Kd: 157
